Experiment: Inhibition of human recombinant FBPase using fructose-1,6-biphosphate as substrate incubated for 3 mins prior to substrate addition by spectrophotometric analysis
Quantity measured: IC50 (nM)
Numbers only, in nM.

Worked examples, 6 molecules total:
Record smiles | Endpoint value
CCOc1cc2ncnc(Nc3cccc(-c4cccnc4)c3)c2cc1OCC | 1400
CCOc1cc2nc(CCCl)nc(Nc3cccc(-c4csc(C)n4)c3)c2cc1OCC | 1000
CCOc1cc2nc(COC)nc(Nc3cccc(-c4csc(C)n4)c3)c2cc1OCC | 1400
CCOc1cc2ncnc(Nc3cccc(-c4cncs4)c3)c2cc1OCC | 980
CCOc1cc2nc(CC)nc(Nc3cccc(-c4csc(C)n4)c3)c2cc1OCC | 1500
CCOc1cc2nc(CN)nc(Nc3cccc(-c4csc(C)n4)c3)c2cc1OCC | 1500

State the recorded IC50 for every item in the following list.
1. CCOc1cc2nc(C)nc(Nc3cccc(-c4csc(C)n4)c3)c2cc1OCC
2. COc1cc2ncnc(Nc3cccc(Cl)c3)c2cc1OC
3. CCOc1cc2ncnc(Nc3cccc(-c4cncnc4)c3)c2cc1OCC

1000
1300
1200
